// data source = the supplement of paper PMC10567573

# MEASUREMENT_NOTES: protein stability index of a GFP-peptide fusion (GPS, HEK-293T) (PSI 1-6); higher = more stable;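 note: 24-mer peptide tiles fused after GFP, lentivirally expressed, FACS-sorted into six equal bins by GFP/DsRed ratio, decoded by Illumina sequencing, PSI is the read-weighted mean bin number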
# TEST_CONDITIONS: treatment: DMSO; c terminus: a fixed tail appended
ATTRIBUTE_MEASURED: protein stability index
Lab note: jot the number down without any unit.

1) MNGDSRAAVVTSPPPTTAPHKERY [ADD1]	4.89
2) HVIHIIDFGLAKEYIDPETKKHIP [CSNK1G1]	1.99

# input Tell us which protein stability index value is on record for LDPVLQAPGTGPAQTELLCCLVKM [FANCE]
# output 2.47

# input Tell us which protein stability index value is on record for HTDIKPENILMCVDDAYVRRMAAE [SRPK2]
# output 4

# input Tell us which protein stability index value is on record for KFSGLYILSFTVIMVGFILYCSTP [SLC35F2]
# output 3.22

# input Tell us which protein stability index value is on record for DSPSKEEVFRFVQSCARAVVPSYI [CPOX]
# output 2.48

----------
# MEASUREMENT_NOTES: protein stability index of a GFP-peptide fusion (GPS, HEK-293T) (PSI 1-6); higher = more stable
# TEST_CONDITIONS: treatment: MLN4924 1 uM, 8 h; c terminus: a fixed tail appended
Values of protein stability index greater than or equal to 4 map to True; values below map to False.

Examples from the recorded data:
1. LLAWRCTKLSLLAIHGYTVWAHNL [FBXO33]	False
2. FLPFLLCAVLLSAVQAQAGWLQHD [FADS1]	False
3. PGGETEALTRLERHLERKAWVANF [CRY1]	False
4. QEPPTTDSQEAQSPGHSSAGQEGE [TOR1AIP2]	True
5. CDDYFFIAHRGERRGIGGIFFDDL [CPOX]	False

Shift focus to the following entry.
# input Decide: is the reported value of protein stability index for DDYPSRGYSDRDGYGRDRDYSDHP [RBMX] equal to or greater than 4?
# output True

----------
# MEASUREMENT_NOTES: protein stability index of a GFP-peptide fusion (GPS, HEK-293T) (PSI 1-6); higher = more stable
# TEST_CONDITIONS: treatment: MLN4924 1 uM, 8 h; c terminus: a fixed tail appended
Values of protein stability index greater than or equal to 3 map to true; values below map to false.

# input Decide: is the reported value of protein stability index for VAGEFSEPVTLETPAFMFRLDAST [FSD1] equal to or greater than 3?
# output true

# input Decide: is the reported value of protein stability index for GKLKAPPKPCAGNQGTQITVEDLF [MLH1] equal to or greater than 3?
# output true

# input Decide: is the reported value of protein stability index for ALVDGQIFCLHGGLSPSIDTLDHI [PPP2CA] equal to or greater than 3?
# output false

# input Decide: is the reported value of protein stability index for PARLLLQALQAGPEGARRGLGVLR [FANCE] equal to or greater than 3?
# output false

# input Decide: is the reported value of protein stability index for WRRSGKYVYKPVMNQTCCPQYTIR [ATE1] equal to or greater than 3?
# output false

# input Decide: is the reported value of protein stability index for KKNWRRVYKSLLLLAYLIRNGSER [CLINT1] equal to or greater than 3?
# output false

# input Decide: is the reported value of protein stability index for VFGRLRDENGRPYSPSQYALQYAG [NFE2L1] equal to or greater than 3?
# output false

# input Decide: is the reported value of protein stability index for RSRDSNSGPEEPLLEEEEKQWGPL [RTN2] equal to or greater than 3?
# output true

# input Decide: is the reported value of protein stability index for SGRLMGSPPVPGPSAALTTMQLFS [FBXO28] equal to or greater than 3?
# output false

# input Decide: is the reported value of protein stability index for SDPQTVAGAFGYFQQDTKGLVDFR [LPCAT4] equal to or greater than 3?
# output true

# input Decide: is the reported value of protein stability index for LYPREGKYNHAACFGLQPGCLLPD [NLN] equal to or greater than 3?
# output true

# input Decide: is the reported value of protein stability index for PMDSTMDDAVAGDFALINKLDIQC [ATE1] equal to or greater than 3?
# output true

# input Decide: is the reported value of protein stability index for NNILISAVLPTAFRVAKKRAPKVL [GDAP1] equal to or greater than 3?
# output false

# input Decide: is the reported value of protein stability index for RVTTEQYQKAAEEVEAKFKRYESH [CHCHD3] equal to or greater than 3?
# output true

# input Decide: is the reported value of protein stability index for TDIKDESCCMTEEIFGPVTCVVPF [ALDH8A1] equal to or greater than 3?
# output true

# input Decide: is the reported value of protein stability index for AAANKLFHYIPGTDILDLENQREN [PLEKHN1] equal to or greater than 3?
# output true

# input Decide: is the reported value of protein stability index for SDGTDEPESKEPVEKEEEPDPEPP [SMG5] equal to or greater than 3?
# output true

# input Decide: is the reported value of protein stability index for PSDAPHAHHPLHPHLMQEHMGTNV [HNF4A] equal to or greater than 3?
# output true

# input Decide: is the reported value of protein stability index for SDVVPEKERPLVIGHFNTASGVGF [MFSD9] equal to or greater than 3?
# output true

# input Decide: is the reported value of protein stability index for LTVLPKLQARERGEEQVELSTIEE [C2CD2L] equal to or greater than 3?
# output true

# input Decide: is the reported value of protein stability index for EMWADQLTSLKDLYKSLKTLSAEL [CEP70] equal to or greater than 3?
# output false

----------
# MEASUREMENT_NOTES: protein stability index of a GFP-peptide fusion (GPS, HEK-293T) (PSI 1-6); higher = more stable
# TEST_CONDITIONS: treatment: MLN4924 1 uM, 8 h; c terminus: a fixed tail appended
ATTRIBUTE_MEASURED: protein stability index

Consider the following illustrative entries.
1) MRGPEPGPQPTMEGDVLDTLEALG [FAM98B]	5.09
2) AEAGHVDICHMLVQFCRLGSPRSR [EHMT1]	2.37
3) ISLINTRMLFWACSTNKPEGYRVS [FAF2]	2.35
4) RDFDNNTPLHIAAQNNCPAIMNAL [FEM1A]	3.46
5) NVNRLNESFRDLQLRLLQAPLQAD [SCARA5]	3.33

# input Tell us which protein stability index value is on record for ICCWSFYGQGRKIAEVCCTSIVYA [KCTD10]
# output 3.44

----------
# MEASUREMENT_NOTES: protein stability index of a GFP-peptide fusion (GPS, HEK-293T) (PSI 1-6); higher = more stable
# TEST_CONDITIONS: treatment: DMSO; c terminus: a fixed tail appended
protein stability index: recorded values
Lab note: jot the number down without any unit.

1. VWMLMLLLAVPNIILTNQSVREVT [P2RY14]	3.27
2. ALKKRSGKKDKHSQSPRAAGPREG [PBXIP1]	4.64
3. KLRGPEPAATEAYGSGDTPGGPCD [TBX6]	5.35
4. LNRRNGSLRIALSEHLKQRREVAK [EDNRA]	3.27
5. EEEEEEEAAGVVVEEELFHQQGTP [LMNB1]	5.38
6. GPLFNFDVHDDVRLLSDATVEKDE [FAM50A]	5.23

Next item in the queue.
# input Tell us which protein stability index value is on record for FDDYSATLPLTLIVILENIAVAWI [SLC6A17]
# output 2.69

----------
# MEASUREMENT_NOTES: protein stability index of a GFP-peptide fusion (GPS, HEK-293T) (PSI 1-6); higher = more stable
# TEST_CONDITIONS: treatment: DMSO; c terminus: native
protein stability index: recorded values
Lab note: jot the number down without any unit.

Consider the following illustrative entries.
1) SNWYITFQSDTDAQQAFILKRRS [LARP4]	2.93
2) HPSENIIAVAATNNLYIFQDKVN [PPP2R2B]	2.44
3) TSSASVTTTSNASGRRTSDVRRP [KRT13]	2.88
4) PEFIKVRENLRRIATLTSEEREL [FAM107A]	2.66

# input Tell us which protein stability index value is on record for LPRGATAAVLAPDSSNASSEPSS [SEPHS2]
# output 5.31

# input Tell us which protein stability index value is on record for TSPVYRGSSSGPSSPARVSTTPR [MTUS2]
# output 4.45

# input Tell us which protein stability index value is on record for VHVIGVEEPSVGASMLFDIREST [ZNF8]
# output 2.3

# input Tell us which protein stability index value is on record for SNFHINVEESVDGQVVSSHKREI [KRT15]
# output 2.91
